Heads up, these molecules all have pIC50 values measured for Glycogen phosphorylase, muscle form (Oryctolagus cuniculus).
Schema: pIC50 number; meaning minus log10 of the concentration expressed in molar units.

stdin: Which pIC50 value is on record for `CCCCCCCCC(=O)OCc1cn(CC(=O)O[C@H]2CC[C@]3(C)[C@H]4CC=C5[C@@H]6CC(C)(C)CC[C@]6(C(=O)OCc6ccccc6)CC[C@@]5(C)[C@]4(C)CC[C@H]3C2(C)C)nn1` ?
stdout: 4.10

stdin: I would be grateful if you could share the reported pIC50 for `CCCCCCCCCCCC(=O)OCc1cn(CC(=O)O[C@H]2CC[C@]3(C)[C@H]4CC=C5[C@@H]6CC(C)(C)CC[C@]6(C(=O)O)CC[C@@]5(C)[C@]4(C)CC[C@H]3C2(C)C)nn1` .
stdout: 5.08

stdin: Returns the measured pIC50 for the input molecule. Input: `CCCCCCCCCC(=O)OCc1cn(CC(=O)O[C@H]2CC[C@]3(C)[C@H]4CC=C5[C@@H]6CC(C)(C)CC[C@]6(C(=O)O)CC[C@@]5(C)[C@]4(C)CC[C@H]3C2(C)C)nn1`
stdout: 4.59

stdin: Return reported pIC50; argument: `CCCCCCCCCC(=O)OCc1cn(CC(=O)O[C@H]2CC[C@]3(C)[C@H]4CC=C5[C@@H]6CC(C)(C)CC[C@]6(C(=O)OCc6ccccc6)CC[C@@]5(C)[C@]4(C)CC[C@H]3C2(C)C)nn1`
stdout: 3.84

stdin: Which pIC50 reading was recorded for the molecule `COc1ccc(C(=O)OCc2cn(CC(=O)O[C@H]3CC[C@]4(C)[C@H]5CC=C6[C@@H]7CC(C)(C)CC[C@]7(C(=O)O)CC[C@@]6(C)[C@]5(C)CC[C@H]4C3(C)C)nn2)cc1` ?
stdout: 4.46

stdin: Quick one: pIC50 for `CCCCCCCCC(=O)OCc1cn(CC(=O)O[C@H]2CC[C@]3(C)[C@H]4CC=C5[C@@H]6CC(C)(C)CC[C@]6(C(=O)O)CC[C@@]5(C)[C@]4(C)CC[C@H]3C2(C)C)nn1` ?
stdout: 4.11
